Would you kindly list IC50 for each of these molecules?
# Experimental System: Leukotriene B4 receptor (Homo sapiens, UniProt Q9NPC1+Q15722)
# Experiment Notes: Ability to inhibit LTB4-induced CD11b up-regulation on isolated human neutrophils
# Type: functional
Could you give me the number in nM? Just the number is fine.

Name the recorded IC50 for O=C(O)c1c(F)cc(F)cc1-c1ccc2c(c1)OC[C@H](Cc1ccccc1)[C@H]2O .
300

Fill blank: measured IC50 of the molecule O=C(O)c1ccc(F)cc1-c1ccc2c(c1)OC[C@H](Cc1ccccc1)[C@H]2O (stereo in doubt; 9) is ____.
240

Bench note: what IC50 did O=C(O)c1ccc(Cl)cc1-c1ccc2c(c1)OC[C@H](Cc1ccccc1)[C@H]2O (stereo in doubt; 6) show?
265

Quick one: IC50 of O=C(O)c1ccc(Cl)cc1-c1ccc2c(c1)OC[C@H](Cc1ccc(-c3ccccc3)cc1)[C@H]2O (stereo in doubt; 22) ?
520

Record request: IC50 value, item O=C(O)c1ccc(C(F)(F)F)cc1-c1ccc2c(c1)OC[C@H](Cc1ccc(-c3ccccc3)cc1)[C@H]2O (stereo in doubt; 27)
820

What IC50 value was documented for this molecule, O=S(=O)(Nc1ccc(F)cc1-c1ccc2c(c1)OC[C@H](Cc1ccccc1)[C@H]2O)C(F)(F)F (stereo in doubt; 38) ?
360

So what does the record say about IC50 for O=C(O)c1ccc(F)cc1-c1ccc2c(c1)OC[C@H](Cc1ccccc1)[C@H]2O (stereo in doubt; 10) ?
3000

What measured IC50 goes with O=C(O)c1ccc(Cl)cc1-c1ccc2c(c1)OC[C@H](Cc1ccc(-c3ccccc3)cc1)[C@H]2O (stereo in doubt; 23) ?
590

Consider the molecule O=C(O)c1ccc(F)cc1-c1ccc2c(c1)OC[C@H](Cc1ccc(-c3ccccc3)cc1)[C@H]2O (stereo in doubt; 25) and give its measured IC50.
700

Can you share its IC50? I mean this molecule: O=C(O)c1ccc(C(F)(F)F)cc1-c1ccc2c(c1)OC[C@H](Cc1ccc(-c3ccccc3)cc1)[C@H]2O (stereo in doubt; 26)
120

Name the recorded IC50 for O=C(O)c1c(-c2ccc3c(c2)OC[C@H](Cc2ccccc2)[C@H]3O)cccc1C(F)(F)F .
750

Recorded IC50 of O=C(O)c1ccc(F)cc1-c1ccc2c(c1)OC[C@H](Cc1ccc(-c3ccccc3)cc1)[C@H]2O (stereo in doubt; 24) , please.
280

Would you mind telling me what IC50 value was observed for O=C(O)c1c(F)cccc1-c1ccc2c(c1)OC[C@H](Cc1ccccc1)[C@H]2O (stereo in doubt; 13) ?
400

Given the molecule NS(=O)(=O)c1ccc(F)cc1-c1ccc2c(c1)OC[C@H](Cc1ccccc1)[C@H]2O , what is its reported IC50?
540

Quick one: IC50 of O=C(O)c1ccc(C(F)(F)F)cc1-c1ccc2c(c1)OC[C@H](Cc1ccccc1)[C@H]2O (stereo in doubt; 16) ?
280

----------
# Experimental System: Leukotriene B4 receptor (Homo sapiens, UniProt Q9NPC1+Q15722)
# Experiment Notes: Ability to inhibit LTB4-induced CD11b up-regulation on isolated human neutrophils in whole blood
# Format: functional, tissue-based
Assay Readout: IC50 (nM)
Write down the numeric answer in nM and omit the unit.

What does the record list as IC50 for O=C(O)c1c(F)cccc1-c1ccc2c(c1)OC[C@H](Cc1ccccc1)[C@H]2O (stereo in doubt; 13) ?
1000

Param item = O=C(O)c1ccc(F)cc1-c1ccc2c(c1)OC[C@H](Cc1ccccc1)[C@H]2O (stereo in doubt; 9) ; retrieve measured IC50.
600

Item under review: O=C(O)c1ccc(Cl)cc1-c1ccc2c(c1)OC[C@H](Cc1ccc(-c3ccccc3)cc1)[C@H]2O (stereo in doubt; 22) . Reported IC50?
1700

Entry under review: O=C(O)c1ccc(F)cc1-c1ccc2c(c1)OC[C@H](Cc1ccc(-c3ccccc3)cc1)[C@H]2O (stereo in doubt; 24) . Reported IC50?
700

Would you mind telling me what IC50 value was observed for O=C(O)c1ccc(C(F)(F)F)cc1-c1ccc2c(c1)OC[C@H](Cc1ccccc1)[C@H]2O (stereo in doubt; 16) [CP-195543] ?
660

Tell me the measured IC50 of O=C(O)c1ccc(Cl)cc1-c1ccc2c(c1)OC[C@H](Cc1ccccc1)[C@H]2O (stereo in doubt; 6) , please.
1300

For O=C(O)c1c(F)cc(F)cc1-c1ccc2c(c1)OC[C@H](Cc1ccccc1)[C@H]2O , what is its reported IC50?
200
